test: AUC (0 to infinity) in BALB/c mouse at 12.5 mg/kg, po measured upto 24 hrs by HPLC analysis; format: ADME, organism-based; parameters: route oral, dose 12.5 mg/kg, time <=24; details: in vivo
recordedMetric: log10(AUC(0-inf)) (log10 of the value in ng·h/mL)
Hello, just confirming the data are log10 of AUC(0-inf) with units of ng·h/mL.

Examples from the recorded data:
- compound: "O=c1nc(N2CCN(CC3CCCCC3)CC2)sc2c([N+](=O)[O-])cc(C(F)(F)F)cc12"
  recordedMetric: "log10(AUC(0-inf))"
  resultValue: 2.96
- compound: "CC(c1ccc(C(F)(F)F)cc1)N1CC2(CCN(c3nc(=O)c4cc(C(F)(F)F)cc([N+](=O)[O-])c4s3)CC2)C1 (stereo unspecified)"
  recordedMetric: "log10(AUC(0-inf))"
  resultValue: 3.74
- compound: "CC(c1cc(F)cc(F)c1)N1CC2(CCN(c3nc(=O)c4cc(C(F)(F)F)cc([N+](=O)[O-])c4s3)CC2)C1 (stereo unspecified)"
  recordedMetric: "log10(AUC(0-inf))"
  resultValue: 2.78
- compound: "CC(c1ccc(Cl)c(F)c1)N1CC2(CCN(c3nc(=O)c4cc(C(F)(F)F)cc([N+](=O)[O-])c4s3)CC2)C1 (stereo unspecified)"
  recordedMetric: "log10(AUC(0-inf))"
  resultValue: 3.29
- compound: "CC(c1cc(F)c(F)c(F)c1)N1CC2(CCN(c3nc(=O)c4cc(C(F)(F)F)cc([N+](=O)[O-])c4s3)CC2)C1 (stereo unspecified)"
  recordedMetric: "log10(AUC(0-inf))"
  resultValue: 2.66

Read the next record carefully.
query: What measured log10(AUC(0-inf)) goes with CC(c1ccc(OC(F)(F)F)cc1)N1CC2(CCN(c3nc(=O)c4cc(C(F)(F)F)cc([N+](=O)[O-])c4s3)CC2)C1 (stereo unspecified) ?
result: 3.56

----------
Quick reference: AUC(0-inf) of the listed items.
assay: AUC (0 to infinity) in BALB/c mouse at 2.5 mg/kg, iv measured upto 24 hrs by HPLC analysis; type: ADME, organism-based; design: route intravenous, dose 2.5 mg/kg, time <=24; details: in vivo
Give just the number in ng·h/mL; leave the unit off.

Examples from the recorded data:
- molecule: "CC(c1cc(F)c(F)c(F)c1)N1CC2(CCN(c3nc(=O)c4cc(C(F)(F)F)cc([N+](=O)[O-])c4s3)CC2)C1 (stereo unspecified)"
  readoutUnit: "ng·h/mL"
  resultValue: 498
- molecule: "CC(c1ccc(OC(F)(F)F)cc1)N1CC2(CCN(c3nc(=O)c4cc(C(F)(F)F)cc([N+](=O)[O-])c4s3)CC2)C1 (stereo unspecified)"
  readoutUnit: "ng·h/mL"
  resultValue: 2990
- molecule: "O=c1nc(N2CCN(CC3CCCCC3)CC2)sc2c([N+](=O)[O-])cc(C(F)(F)F)cc12"
  readoutUnit: "ng·h/mL"
  resultValue: 1540
- molecule: "CC(c1ccc(C(F)(F)F)cc1)N1CC2(CCN(c3nc(=O)c4cc(C(F)(F)F)cc([N+](=O)[O-])c4s3)CC2)C1 (stereo unspecified)"
  readoutUnit: "ng·h/mL"
  resultValue: 2650
- molecule: "CC(c1cc(F)cc(F)c1)N1CC2(CCN(c3nc(=O)c4cc(C(F)(F)F)cc([N+](=O)[O-])c4s3)CC2)C1 (stereo unspecified)"
  readoutUnit: "ng·h/mL"
  resultValue: 812

Read the next record carefully.
query: What measured AUC(0-inf) goes with CC(c1ccc(Cl)c(F)c1)N1CC2(CCN(c3nc(=O)c4cc(C(F)(F)F)cc([N+](=O)[O-])c4s3)CC2)C1 (stereo unspecified) ?
result: 1170
